target: Recombinant purified human BTK (Homo sapiens, UniProt Q06187); construct: purchased Promega V9071; assay: BTK kinase inhibitory activity, ADP-Glo kinase assay (Promega V9071); format: biochemical; conditions: ATP 10 uM, 8 ng BTK per reaction, 1 hour 30 °C, chemiluminescence
Sequence (Q06187 whole entry): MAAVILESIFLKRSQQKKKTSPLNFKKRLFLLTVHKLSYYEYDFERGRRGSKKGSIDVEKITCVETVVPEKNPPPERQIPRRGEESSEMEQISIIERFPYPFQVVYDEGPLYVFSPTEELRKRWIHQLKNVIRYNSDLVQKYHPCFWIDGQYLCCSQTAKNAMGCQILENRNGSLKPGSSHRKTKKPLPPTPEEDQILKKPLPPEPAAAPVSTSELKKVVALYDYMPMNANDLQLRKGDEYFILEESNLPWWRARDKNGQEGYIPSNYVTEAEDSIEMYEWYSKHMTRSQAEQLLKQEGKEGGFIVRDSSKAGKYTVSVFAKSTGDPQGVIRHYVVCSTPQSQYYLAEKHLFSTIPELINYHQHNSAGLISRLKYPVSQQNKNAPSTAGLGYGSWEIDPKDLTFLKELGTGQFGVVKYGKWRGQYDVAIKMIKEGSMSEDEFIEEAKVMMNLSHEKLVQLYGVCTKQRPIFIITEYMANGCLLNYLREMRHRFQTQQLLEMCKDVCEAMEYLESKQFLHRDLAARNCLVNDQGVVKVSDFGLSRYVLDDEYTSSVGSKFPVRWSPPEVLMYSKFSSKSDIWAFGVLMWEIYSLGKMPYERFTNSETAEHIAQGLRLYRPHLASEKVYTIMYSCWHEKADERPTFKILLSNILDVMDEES
Structures can show the parent of a compound that is named as a salt.
endpoint: IC50

>  <molecule>
C=CC(=O)N1CC[C@@H](F)[C@@H](Nc2nc(Nc3cnn(CC)c3)nc3[nH]cc(F)c23)C1 [Example 86]

>  <IC50>
1 nM

$$$$

Req: Fill blank: measured IC50 of the molecule C=CC(=O)N1CCC[C@@H](Nc2nc(Nc3cnn(CCN4CCOCC4)c3)nc3[nH]ccc23)C1 [Example 18] is ____.
Resp: 8.8 nM

Req: Continue with N#CCC(=O)N1CCC[C@@H](Nc2nc(Nc3cnn(C4CC4)c3)nc3[nH]nc(Cl)c23)C1 [Example 139]
Resp: 143 nM

Req: Continue with C=CC(=O)N1CC[C@@H](C)[C@@H](Nc2nc(Nc3cnn(CC(C)C)c3)nc3[nH]nc(Cl)c23)C1 [Example 124]
Resp: 3.5 nM

Req: Continue with CCn1cc(Nc2nc(N[C@H]3CN(C(=O)CC#N)CC[C@H]3F)c3c(Cl)n[nH]c3n2)cn1 [Example 138]
Resp: 92.7 nM

Req: Continue with C=CC(=O)N1CCC[C@@H](Oc2nc(Nc3cnn(CC)c3)nc3[nH]nc(Cl)c23)C1 [Example 147]
Resp: 2.1 nM

Req: Continue with C=CC(=O)N1CC[C@@H](C)[C@@H](Nc2nc(Nc3cnn(CC)c3)nc3[nH]nc(SC)c23)C1 [Example 132]
Resp: 2.1 nM

Req: Continue with C=CC(=O)N1CCC[C@@H](Nc2nc(Nc3cnn(CCOC)c3)nc3[nH]ncc23)C1 [Example 74]
Resp: 1.7 nM

Req: Continue with C=CC(=O)N1CCC[C@@H](Nc2nc(Nc3cnn(C4CCOCC4)c3)nc3[nH]nc(Cl)c23)C1 [Example 48]
Resp: 0.9 nM

Req: Continue with CCn1cc(Nc2nc(S[C@@H]3CCCN(C(=O)/C(C#N)=C/C4CC4)C3)c3c(Cl)n[nH]c3n2)cn1 [Example 181]
Resp: 2.2 nM

Req: Continue with CCC#CC(=O)N1CCC[C@@H](Nc2nc(Nc3ccc(N4CCN(C)CC4)cc3)nc3[nH]cc(Cl)c23)C1 [Example 142]
Resp: 210 nM

Req: Continue with C=CC(=O)N1CCC[C@@H](Sc2nc(Nc3cnn(CC(F)(F)F)c3)nc3[nH]nc(Cl)c23)C1 [Example 114]
Resp: 2.3 nM

Req: Continue with C=CC(=O)N1CCC[C@@H](Nc2nc(Nc3cnn(CC)c3)nc3[nH]nc(SC)c23)C1 [Example 189]
Resp: 0.721 nM

Req: Continue with C=CC(=O)N1CC[C@@H](F)[C@@H](Nc2nc(Nc3cnn(CC)c3)nc3[nH]ncc23)C1 [Example 77]
Resp: 1.1 nM

Req: Continue with C=CC(=O)N1CCC[C@@H](Nc2nc(Nc3cnn(CC(F)F)c3)nc3[nH]nc(Cl)c23)C1 [Example 90, hydrochloride]
Resp: 1 nM

---

biological target: Recombinant purified human BTK (Homo sapiens); assay: BTK kinase inhibitory activity, ADP-Glo kinase assay (Promega V9071); conditions: ATP 10 uM, 8 ng BTK per reaction, 1 hour 30 °C, chemiluminescence
Recorded IC50 for the following compounds
Note: unit nM is implicit; provide only the numeric part.

Some solved entries appear below for comparison.
>  <compound>
CCn1cc(Nc2nc(O[C@@H]3CCCN(C(=O)/C(C#N)=C/C4CC4)C3)c3c(C#N)c[nH]c3n2)cn1 [Example 157]

>  <units>
nM

>  <IC50>
1.4

$$$$
>  <compound>
C=CC(=O)N1CC[C@@H](C)[C@@H](Nc2nc(Nc3cnn(C)c3)nc3[nH]nc(Cl)c23)C1 [Example 128]

>  <units>
nM

>  <IC50>
5.8

$$$$
>  <compound>
C=CC(=O)N1CCC[C@@H](Nc2nc(Nc3cnn(Cc4cccc(OC)c4)c3)nc3[nH]nc(Cl)c23)C1 [Example 58]

>  <units>
nM

>  <IC50>
1.8

$$$$
>  <compound>
CCn1cc(Nc2nc(N[C@H]3CN(C(=O)/C(C#N)=C/C4CC4)CC[C@H]3F)c3c(Cl)n[nH]c3n2)cn1 [Example 161]

>  <units>
nM

>  <IC50>
1.3

$$$$
>  <compound>
C=CC(=O)N1CCC[C@@H](Nc2nc(Nc3cnn(CC(=O)NC)c3)nc3[nH]nc(Cl)c23)C1 [Example 47]

>  <units>
nM

>  <IC50>
5.2

$$$$
>  <compound>
C=CC(=O)N1CCC[C@@H](Nc2nc(Nc3cnn(CC(F)F)c3)nc3[nH]nc(Cl)c23)C1 [Example 44]

>  <units>
nM

>  <IC50>
2.5

$$$$

Req: Fill blank: measured IC50 of the compound C=CC(=O)N1CCC[C@@H](Nc2nc(Nc3cnn(C(C)(C)C)c3)nc3[nH]nc(SC)c23)C1 [Example 192] is ____.
Resp: 0.726

---

target: Recombinant purified human JAK3 (Homo sapiens, UniProt P52333); assay: JAK3 kinase inhibitory activity, ADP-Glo kinase assay (Promega V9441); details: ATP 5 uM, 4 ng JAK3 per reaction, 1 hour 30 °C, chemiluminescence
Cut-off 1 nM on IC50: below means YES, at or above means NO.

Would you please look over these solved cases?
>  <compound>
C=CC(=O)N1CC[C@@H](C)[C@@H](Nc2nc(Nc3cnn(CC#N)c3)nc3[nH]nc(SC)c23)C1

>  <class.label>
NO

$$$$
>  <compound>
C=CC(=O)N1CCC[C@@H](Nc2nc(Nc3cc(C)ns3)nc3[nH]cc(F)c23)C1

>  <class.label>
NO

$$$$
>  <compound>
CCn1cc(Nc2nc(N[C@@H]3CCCN(C(=O)/C(C#N)=C/C4CC4)C3)c3cn[nH]c3n2)cn1

>  <class.label>
NO

$$$$

Req: Threshold test, IC50 < 1 nM: `C=CC(=O)N1CC[C@@H](F)[C@@H](Nc2nc(Nc3cnn(CC)c3)nc3[nH]cc(F)c23)C1`
Resp: YES

Req: Continue with `C=CC(=O)N1CCC[C@@H](Nc2nc(Nc3cnn(CC)c3)nc3[nH]ncc23)C1`
Resp: NO

Req: Continue with `C=CC(=O)N1CCC[C@@H](Nc2nc(Nc3cnn(CCN4CCOCC4)c3)nc3[nH]ccc23)C1`
Resp: YES

Req: Continue with `C=CC(=O)N1CCC[C@@H](Nc2nc(Nc3cc(C)ns3)nc3[nH]ccc23)C1`
Resp: YES

Req: Continue with `C=CC(=O)N1CCC[C@@H](Nc2nc(Nc3cnn(CCN(CC)CC)c3)nc3[nH]ccc23)C1`
Resp: YES

---

Recorded pIC50 for the following molecules
Target: Recombinant purified human JAK3 (Homo sapiens)
Sequence (P52333 1-1124): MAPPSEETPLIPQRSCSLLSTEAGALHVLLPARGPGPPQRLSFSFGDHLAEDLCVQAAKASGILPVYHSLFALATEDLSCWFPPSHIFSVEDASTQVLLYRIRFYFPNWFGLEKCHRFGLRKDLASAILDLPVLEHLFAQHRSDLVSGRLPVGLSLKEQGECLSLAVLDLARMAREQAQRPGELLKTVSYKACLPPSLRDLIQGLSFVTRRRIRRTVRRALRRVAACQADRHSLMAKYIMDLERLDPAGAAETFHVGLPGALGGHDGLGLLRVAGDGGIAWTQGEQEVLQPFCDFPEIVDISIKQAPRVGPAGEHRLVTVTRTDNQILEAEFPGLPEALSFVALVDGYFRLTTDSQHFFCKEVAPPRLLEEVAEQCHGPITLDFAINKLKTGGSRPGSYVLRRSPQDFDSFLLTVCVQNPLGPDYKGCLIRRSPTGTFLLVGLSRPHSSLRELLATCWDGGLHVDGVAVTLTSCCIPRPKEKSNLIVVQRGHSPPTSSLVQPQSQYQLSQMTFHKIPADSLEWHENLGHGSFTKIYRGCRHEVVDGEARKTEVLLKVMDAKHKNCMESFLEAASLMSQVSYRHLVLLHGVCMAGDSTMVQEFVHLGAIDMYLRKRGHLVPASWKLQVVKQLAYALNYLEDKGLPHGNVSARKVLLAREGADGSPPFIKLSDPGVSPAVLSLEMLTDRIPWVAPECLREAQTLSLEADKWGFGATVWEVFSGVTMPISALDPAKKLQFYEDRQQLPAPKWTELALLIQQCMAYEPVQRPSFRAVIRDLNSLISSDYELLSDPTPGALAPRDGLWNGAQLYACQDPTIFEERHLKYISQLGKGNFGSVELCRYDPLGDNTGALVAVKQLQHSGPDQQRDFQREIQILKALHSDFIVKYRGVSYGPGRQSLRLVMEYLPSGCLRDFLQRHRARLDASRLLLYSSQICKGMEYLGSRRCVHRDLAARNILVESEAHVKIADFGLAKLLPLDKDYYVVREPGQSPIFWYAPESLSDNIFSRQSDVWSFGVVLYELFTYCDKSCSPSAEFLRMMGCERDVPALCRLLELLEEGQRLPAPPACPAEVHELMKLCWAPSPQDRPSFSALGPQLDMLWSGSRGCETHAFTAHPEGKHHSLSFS
Assay: JAK3 kinase inhibitory activity, ADP-Glo kinase assay (Promega V9441)
Settings: ATP 5 uM, 4 ng JAK3 per reaction, 1 hour 30 °C, chemiluminescence
Answer as the number alone; pIC50 is minus log10 of concentration in mol/L.

>  <smiles.structure>
C=CC(=O)N1CCC[C@@H](Nc2nc(Nc3ccc(C(=O)N4CCOCC4)cc3)nc3[nH]ccc23)C1

>  <system.under.test>
Recombinant purified human JAK3 (Homo sapiens)

>  <pIC50>
8.89

$$$$

Req: Fill blank: measured pIC50 of the molecule `C=CC(=O)N1CCC[C@@H](Nc2nc(Nc3cnn(CC(=O)NC)c3)nc3[nH]ccc23)C1` is ____.
Resp: 9.40

Req: Continue with `C=CC(=O)N1CCC[C@@H](N(C)c2nc(Nc3cnn(CC)c3)nc3[nH]nc(SC)c23)C1`
Resp: 7.61

Req: Continue with `C=CC(=O)N1CCC[C@@H](Nc2nc(Nc3cnn(CC(C)C)c3)nc3[nH]nc(Cl)c23)C1`
Resp: 8.89
